# method summary: Rodent pharmacokinetics: oral bioavailability and clearance, plasma
# Format: in vivo, mouse
# condition label: PO, 10 mg/kg; male CD1 mouse plasma; free base
reported metric: Tmax (min)

>>> df
                              smiles_string  reported_metric  unit_tag  measured_value
0  COC1CN(Cc2cnc3oc4c(N5CCOCC5)nc(-c5c(F)ccc6[nH]ccc56)nc4c3c2)C1             Tmax       min              30

---

# method summary: Rodent pharmacokinetics: oral bioavailability and clearance, plasma
# Assay type: in vivo, mouse
# condition label: PO, 10 mg/kg; male CD1 mouse plasma; free base
reported metric: AUC(0-inf) (ng·h/mL)

In [3]: df
Out[3]:
                              smiles_string  reported_metric  measured_value
0  COC1CN(Cc2cnc3oc4c(N5CCOCC5)nc(-c5c(F)ccc6[nH]ccc56)nc4c3c2)C1       AUC(0-inf)            2830

---

# method summary: Rodent pharmacokinetics: oral bioavailability and clearance, plasma
# Type: in vivo, mouse
# condition label: PO, 10 mg/kg; male CD1 mouse plasma; free base; 10% DMSO, 15% Cremophor, 75% Saline
reported metric: half-life (h)

>>> df
                              smiles_string  measured_value
0  COC1CN(Cc2cnc3oc4c(N5CCOCC5)nc(-c5c(F)ccc6[nH]ccc56)nc4c3c2)C1            1.34

---

# measurement target: PI3K-p110δ (Homo sapiens, UniProt O00329)
# Sequence (O00329 whole entry, one chain of several, canonical isoform): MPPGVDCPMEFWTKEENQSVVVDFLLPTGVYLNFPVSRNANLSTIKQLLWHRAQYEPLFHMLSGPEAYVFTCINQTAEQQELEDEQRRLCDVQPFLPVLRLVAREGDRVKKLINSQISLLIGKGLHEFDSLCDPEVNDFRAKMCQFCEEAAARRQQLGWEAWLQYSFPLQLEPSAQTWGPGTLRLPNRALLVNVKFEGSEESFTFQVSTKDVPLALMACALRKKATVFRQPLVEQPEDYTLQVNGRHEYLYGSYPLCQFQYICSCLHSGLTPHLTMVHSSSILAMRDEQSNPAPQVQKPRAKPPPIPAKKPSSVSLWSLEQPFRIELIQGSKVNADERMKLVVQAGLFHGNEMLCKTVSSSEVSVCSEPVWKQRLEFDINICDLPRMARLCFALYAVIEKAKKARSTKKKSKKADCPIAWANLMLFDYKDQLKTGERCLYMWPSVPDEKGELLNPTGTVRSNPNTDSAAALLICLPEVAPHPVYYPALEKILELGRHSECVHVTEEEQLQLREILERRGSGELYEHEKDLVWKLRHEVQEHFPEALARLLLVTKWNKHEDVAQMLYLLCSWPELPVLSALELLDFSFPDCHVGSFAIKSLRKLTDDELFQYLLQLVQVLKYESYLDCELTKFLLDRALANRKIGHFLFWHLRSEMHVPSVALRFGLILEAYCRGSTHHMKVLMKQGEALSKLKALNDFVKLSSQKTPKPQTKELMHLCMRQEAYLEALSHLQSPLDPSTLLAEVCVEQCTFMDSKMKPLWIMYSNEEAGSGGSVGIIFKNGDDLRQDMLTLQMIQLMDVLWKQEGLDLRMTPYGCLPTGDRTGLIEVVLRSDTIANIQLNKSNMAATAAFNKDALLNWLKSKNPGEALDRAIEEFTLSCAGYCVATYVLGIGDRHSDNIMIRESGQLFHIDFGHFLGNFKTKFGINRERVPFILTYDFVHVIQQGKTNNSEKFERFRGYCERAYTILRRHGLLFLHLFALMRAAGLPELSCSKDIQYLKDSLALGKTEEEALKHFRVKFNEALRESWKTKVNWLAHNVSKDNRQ
# method summary: Fold isoform selectivity from Ki determination, non-radiometric ADP-Glo assay (Proqinase)
# Type: biochemical
# condition label: class I PI3K isoforms
reported metric: FOLD Ki p110δ/p110α

>>> print(df.to_string())
                                    molecule      reported_metric         measured_value
 0  Fc1ccc2[nH]ccc2c1-c1nc(N2CCOCC2)c2oc3ncc(CN4CCC5(CC4)COC5)cc3c2n1 [Example D]  FOLD Ki p110δ/p110α  *** (*** ≥50x < 100x)
 1  COC1CN(Cc2cnc3oc4c(N5CCOCC5)nc(-c5cccc6[nH]c(C(F)(F)F)cc56)nc4c3c2)C1 [Example H]  FOLD Ki p110δ/p110α             * (* <10x)
 2  COC1CN(Cc2cnc3oc4c(N5CCOCC5)nc(-c5cccc6[nH]cc(F)c56)nc4c3c2)C1 [Example Q]  FOLD Ki p110δ/p110α     ** (** ≥10x < 50x)
 3  COC1CN(Cc2cnc3oc4c(N5CCOCC5)nc(-c5cc(F)cc6[nH]ccc56)nc4c3c2)C1 [Example I]  FOLD Ki p110δ/p110α  *** (*** ≥50x < 100x)
 4  Fc1ccc2[nH]ccc2c1-c1nc(N2CCOCC2)c2oc3ncc(N4CCOCC4)cc3c2n1 [Example O]  FOLD Ki p110δ/p110α             * (* <10x)
 5  CCN1CCN(Cc2cnc3oc4c(N5CCOCC5)nc(-c5c(F)ccc6[nH]ccc56)nc4c3c2)CC1=O [Example P]  FOLD Ki p110δ/p110α     ** (** ≥10x < 50x)
 6  Fc1cc(-c2nc(N3CCOCC3)c3oc4ncc(CN5CCC6(CC5)COC6)cc4c3n2)c2cc[nH]c2c1 [Example B]  FOLD Ki p110δ/p110α  *** (*** ≥50x < 100x)
 7  COC1CN(Cc2cnc3oc4c(N5CCOCC5)nc(-c5ccc(F)c6[nH]ccc56)nc4c3c2)C1 [Example N]  FOLD Ki p110δ/p110α     ** (** ≥10x < 50x)
 8  COC1CN(Cc2cnc3sc4c(N5CCOCC5)nc(-c5c(F)ccc6[nH]ccc56)nc4c3c2)C1 [Example K]  FOLD Ki p110δ/p110α             * (* <10x)
 9  COC1CN(Cc2cnc3oc4c(N5CCOCC5)nc(-c5cc(C(F)(F)F)cc6[nH]ccc56)nc4c3c2)C1 [Example L]  FOLD Ki p110δ/p110α             * (* <10x)
10  COC1CN(Cc2cnc3oc4c(N5CCOCC5)nc(-c5c(F)ccc6[nH]ccc56)nc4c3c2)C1 [Example E]  FOLD Ki p110δ/p110α     ** (** ≥10x < 50x)

---

# method summary: Rodent pharmacokinetics: oral bioavailability and clearance, plasma
# Format: in vivo, mouse
# condition label: IV, 5 mg/kg; male CD1 mouse plasma; free base
reported metric: AUC(0-inf) (ng·h/mL)

In [3]: df
Out[3]:
                                   compound  reported_metric  measured_value
0  COC1CN(Cc2cnc3oc4c(N5CCOCC5)nc(-c5c(F)ccc6[nH]ccc56)nc4c3c2)C1 [Example E]       AUC(0-inf)            3010

---

# measurement target: UniProt P42338
# Sequence (P42338 whole entry, canonical isoform): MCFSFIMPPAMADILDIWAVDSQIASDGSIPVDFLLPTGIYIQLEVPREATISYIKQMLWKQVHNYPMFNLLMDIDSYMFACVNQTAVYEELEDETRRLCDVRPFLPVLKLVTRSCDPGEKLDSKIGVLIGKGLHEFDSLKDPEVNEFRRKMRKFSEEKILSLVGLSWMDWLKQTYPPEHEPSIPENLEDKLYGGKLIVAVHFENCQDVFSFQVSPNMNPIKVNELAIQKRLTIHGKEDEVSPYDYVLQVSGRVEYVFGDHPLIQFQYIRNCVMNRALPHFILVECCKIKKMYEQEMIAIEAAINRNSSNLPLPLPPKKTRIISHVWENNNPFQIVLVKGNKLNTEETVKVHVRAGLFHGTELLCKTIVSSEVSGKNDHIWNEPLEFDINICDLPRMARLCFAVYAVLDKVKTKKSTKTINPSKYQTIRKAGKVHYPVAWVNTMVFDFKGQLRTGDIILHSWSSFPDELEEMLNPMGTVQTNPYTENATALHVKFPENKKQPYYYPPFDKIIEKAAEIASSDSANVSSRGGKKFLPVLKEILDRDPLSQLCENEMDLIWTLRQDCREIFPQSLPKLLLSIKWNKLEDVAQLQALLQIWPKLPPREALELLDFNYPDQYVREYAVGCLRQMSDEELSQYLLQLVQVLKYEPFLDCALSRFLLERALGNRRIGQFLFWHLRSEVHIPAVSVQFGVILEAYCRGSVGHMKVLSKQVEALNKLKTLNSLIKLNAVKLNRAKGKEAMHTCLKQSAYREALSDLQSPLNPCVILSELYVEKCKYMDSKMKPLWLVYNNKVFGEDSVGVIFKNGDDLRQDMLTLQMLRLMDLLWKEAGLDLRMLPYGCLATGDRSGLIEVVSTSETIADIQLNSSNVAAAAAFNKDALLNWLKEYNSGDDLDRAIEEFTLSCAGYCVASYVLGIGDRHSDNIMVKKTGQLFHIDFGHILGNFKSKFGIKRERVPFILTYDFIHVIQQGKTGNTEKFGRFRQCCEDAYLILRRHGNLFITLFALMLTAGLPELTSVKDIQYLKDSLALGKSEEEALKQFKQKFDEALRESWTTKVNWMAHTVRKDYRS
# Sequence (P27986 whole entry partner, canonical isoform): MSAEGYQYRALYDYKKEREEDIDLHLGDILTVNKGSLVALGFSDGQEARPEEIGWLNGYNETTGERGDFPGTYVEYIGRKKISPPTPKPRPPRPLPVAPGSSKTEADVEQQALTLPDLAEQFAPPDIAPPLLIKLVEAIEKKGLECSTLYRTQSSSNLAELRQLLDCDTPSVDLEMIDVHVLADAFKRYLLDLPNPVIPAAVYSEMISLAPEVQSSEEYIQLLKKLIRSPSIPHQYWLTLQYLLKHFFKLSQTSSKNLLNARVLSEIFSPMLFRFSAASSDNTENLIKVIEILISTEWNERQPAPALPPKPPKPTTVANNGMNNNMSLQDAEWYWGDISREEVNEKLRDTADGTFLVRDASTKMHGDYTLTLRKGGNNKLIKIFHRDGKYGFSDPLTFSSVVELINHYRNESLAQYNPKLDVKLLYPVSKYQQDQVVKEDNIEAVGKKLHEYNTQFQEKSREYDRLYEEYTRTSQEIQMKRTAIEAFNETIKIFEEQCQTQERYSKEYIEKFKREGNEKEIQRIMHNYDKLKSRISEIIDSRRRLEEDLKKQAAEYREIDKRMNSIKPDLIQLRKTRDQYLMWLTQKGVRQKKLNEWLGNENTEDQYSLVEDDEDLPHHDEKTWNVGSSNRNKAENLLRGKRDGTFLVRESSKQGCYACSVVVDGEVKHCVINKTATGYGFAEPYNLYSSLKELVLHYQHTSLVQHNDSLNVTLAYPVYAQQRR
# method summary: Fold isoform selectivity from Ki determination, non-radiometric ADP-Glo assay (Proqinase)
# Assay type: biochemical
# condition label: class I PI3K isoforms
reported metric: FOLD Ki p110β/p110α

In [3]: df
Out[3]:
                              smiles_string         measured_value
0  COC1CN(Cc2cnc3sc4c(N5CCOCC5)nc(-c5c(F)ccc6[nH]ccc56)nc4c3c2)C1             * (* <10x)
1  COC1CN(Cc2cnc3oc4c(N5CCOCC5)nc(-c5cc(F)cc6[nH]ccc56)nc4c3c2)C1  *** (*** ≥50x < 100x)
2  COC1CN(Cc2cnc3oc4c(N5CCOCC5)nc(-c5cccc6[nH]c(C(F)(F)F)cc56)nc4c3c2)C1             * (* <10x)
3  Fc1ccc2[nH]ccc2c1-c1nc(N2CCOCC2)c2oc3ncc(CN4CCC5(CC4)COC5)cc3c2n1  *** (*** ≥50x < 100x)

---

# method summary: Rodent pharmacokinetics: oral bioavailability and clearance, plasma
# Assay type: in vivo, mouse
# condition label: IV, 5 mg/kg; male CD1 mouse plasma; free base
reported metric: Vd (L/kg)

>>> print(df.to_string())
                              smiles_string  measured_value
0  COC1CN(Cc2cnc3oc4c(N5CCOCC5)nc(-c5c(F)ccc6[nH]ccc56)nc4c3c2)C1            1.29

The values you see were collected from patent US10377764B2.
